Test system: KM12 colon
Assay: NCI-60 one-dose screen, 48 h (100 = growth as untreated, 0 = no growth, -100 = all killed)
Conditions: 10 µM unless noted
Compounds without any hit were thinned out: in the full panel of roughly 83,000, 20% have a hit. The source made the active and inactive calls. How the source made its calls: active means growth percent below 10; inactive means the rest.
readout name: growth

O=C(Nc1ncc([N+](=O)[O-])s1)c1cccc([N+](=O)[O-])c1 :: 62.9% (inactive)
Cc1cc(NC(=O)Nc2cc(Cl)ccc2C)no1 :: 107% (inactive)
CCN(CC)CCOc1ccccc1-n1c(C)ccc1-c1ccccc1 :: 50.6% (inactive)
O=C(CSc1nnc(Nc2ccccc2)s1)NCCc1ccc(F)cc1 :: 111% (inactive)
CC/C=C\C=C/C(=O)N/C=C/CC1Cc2cccc(O)c2C(=O)O1 (configuration not stated) :: 42.1% (inactive)

Which measured growth belongs to CCCOc1ccc2c(c1)CC[C@@H]1[C@@H]2CC[C@@]2(C)[C@H]1CC[C@]2(C)O , tested on KM12 colon? 35.6% (inactive)

// query: CCOc1nc(-c2ccccc2)cc2c(O)c(-c3nnco3)[nH]c(=O)c12 48.9% (inactive)

// query: CC(=O)Nc1ccc2c(c1)Cc1c(F)c(F)c(F)c(F)c1-2 92.8% (inactive)

// query: COc1ccc2[nH]cc(/C=C3/C(=O)Nc4ccc(Cl)cc43)c2c1 3.07% (active)

---

Tested on: OVCAR-4 ovarian
Test: NCI-60 one-dose screen, 48 h (100 = growth as untreated, 0 = no growth, -100 = all killed)
Conditions: 10 µM unless noted
About 83,000 compounds went through this panel and 20% of them were active in at least one assay; those are over-represented in the sample as a whole.
readout name: growth (%)
Quick reminder: number only, in %, skip the unit.

Please review the following examples before continuing.
Cn1cc(-c2nc(-c3c[nH]c4ncccc34)cs2)c2cccnc21 :: 70.4
O=C(CCc1nnc(SCc2ccccc2)s1)c1nc2ccccc2[nH]1 :: 85.7
CCOc1cccc(C2CC(=O)Nc3cc4c(cc32)OCO4)c1 (stereo not given) :: 89.9
O=C1/C(=C/c2ccc([N+](=O)[O-])o2)Oc2ccc(Cl)cc21 :: -48

growth lookup needed for CC(C)[O-].CC(C)[O-].CN(CCN(C)Cc1cc(F)cc(F)c1[O-])Cc1cc(F)cc(F)c1[O-].[Ti+4] , thanks. 14

---

Tested on: NCI-H23 lung
Test: NCI-60 one-dose screen, 48 h
Conditions: 10 µM unless noted
About 83,000 compounds went through this panel and 20% of them were active in at least one assay; those are over-represented in the sample as a whole. Active and inactive are the calls of the source. Rule for the calls: active = growth percent below 10; inactive = the rest.
Parameter call: string, one of active, inactive

Check out these entries, answers already filled in.
COc1ccc(Nc2nccc(N3CCN(c4c5ccc(Cl)cc5nc5ccc(OC)cc45)CC3)n2)cc1 :: inactive
S=C(c1ccccc1)N1CCN(c2cccc(Cl)c2)CC1 :: inactive
O=C(/C(=C/c1cccc([N+](=O)[O-])c1)c1ccccc1)c1ccccc1 :: inactive
CCC1=C(c2ccc(OC)cc2)C(C)Oc2cc(OC(C)=O)ccc21 (stereo unspecified) :: inactive
Cc1cc(NC(=O)c2ccc(N)cc2)ccc1N=Nc1ccc2c(O)c(N=Nc3ccc(Cl)c(S(=O)(=O)O)c3)c(S(=O)(=O)O)cc2c1 :: inactive
COc1cc2c(-c3nc4cc(Cl)c(F)cc4s3)cc(=O)oc2c(C)c1OC :: active
COc1ccc(/C=C2\COc3ccc(O)c(O)c3C2=O)cc1OC :: inactive
CCCc1cccc(CCC)c1O :: inactive

Called result for c1cnc2ccc3ncccc3c2c1 inactive

// query: CCOC(=O)c1c(C)c(C(=O)OCC)n(C)c1C inactive

// query: CCC(c1ccccc1)c1noc(CCN(CC)CC)n1 (stereo unspecified) inactive

---

System: NCI-H322M lung
Test: NCI-60 one-dose screen, 48 h (100 = growth as untreated, 0 = no growth, -100 = all killed)
Settings: 10 µM unless noted
The panel holds about 83,000 compounds, 20% with a hit somewhere; the sample as a whole holds those more often.
readout name: growth (%)
Quick reminder: number only, in %, skip the unit.

growth lookup needed for CN(C)c1ccc(/C=C(\C#N)c2nc3ccccc3c(=O)[nH]2)cc1 , thanks. 89.7

// query: CCC(C)CC(C)C(=O)c1c(O)ccn(OC)c1=O (stereo unspecified) 69.2

// query: O=C1Cc2cc(CCn3cncn3)c(Cl)cc2N1 92.7

// query: COc1ccc2nc(NC(=O)c3cc(-c4ccc(F)cc4)n4nc(-c5ccccc5)cc4n3)sc2c1 82.8

// query: CCC(=O)Nc1ccccc1C#C/C=C\C#Cc1ccccc1C(F)(F)F 37.4

---

Test system: UACC-257 melanoma
Test: NCI-60 one-dose screen, 48 h
Conditions: 10 µM unless noted
Compounds without any hit were thinned out: in the full panel of roughly 83,000, 20% have a hit. Active and inactive are the calls of the source. How the source made its calls: active means growth percent below 10; inactive means the rest.
Parameter call: string, one of TRUE for active, FALSE for inactive

O=C(N1CCC(CN=c2cc3n(-c4ccc(Cl)cc4)c4ccccc4nc-3cc2Nc2ccc(Cl)cc2)CC1)N1CC1 :: TRUE
CCC(CC)NCCCCCNc1cc(OC)cc2cccnc12 :: FALSE
O=C(C(Br)Br)C(Br)C(Br)c1ccccc1 (stereo unspecified) :: FALSE
O=C(NCCc1ccccc1)C1CCC(=O)N1Cc1ccc(Br)cc1 (stereo unspecified) :: FALSE
CC/C(=C\c1ccc(N(C)C)cc1)c1ccncc1 :: FALSE

Called result for N=C(N)/N=C(\CCc1nc2ccccc2[nH]1)c1nc2ccccc2[nH]1 FALSE

// query: Cc1ccc2c(c1)O/C(=C\c1ccc([N+](=O)[O-])o1)C2=O FALSE

// query: O=c1[nH]c(Cl)nc2c1cnn2-c1ccccc1 FALSE

// query: COc1cc(OC)c2sc(-c3ccc(-n4cncc4-c4ccc(N)cc4)cc3)nc2c1 FALSE

// query: CC(C)(C)c1ccc(C(O)CCCN2CCC(C(O)(c3ccccc3)c3ccccc3)CC2)cc1 (stereo unspecified) TRUE

---

Test system: NCI/ADR-RES ovarian
Assay: NCI-60 one-dose screen, 48 h (100 = growth as untreated, 0 = no growth, -100 = all killed)
Settings: 10 µM unless noted
Compounds without any hit were thinned out: in the full panel of roughly 83,000, 20% have a hit.
// assign Met if growth falls strictly below 60%, else Not met (ties count as Not met)

Check out these entries, answers already filled in.
COc1ccc(/C=C2\COc3ccc(O)c(O)c3C2=O)cc1OC :: Met
Nc1nc(SCc2ccccc2Cl)c(-c2ccccc2)c(SCc2ccccc2Cl)n1 :: Not met
Nc1ccc(C2=NN(c3ccccc3)C(c3ccc(Cl)cc3)C2)cc1 (stereo unspecified) :: Not met
O=C1/C(=C/c2ccc([N+](=O)[O-])o2)Oc2ccc(Br)cc21 :: Not met
COc1cc(-c2cc(C(=O)Nc3nc4ccccc4s3)nc3cc(-c4ccccc4)nn23)cc(OC)c1OC :: Not met
COc1cccc(/C=C2\COc3ccc(O)c(O)c3C2=O)c1OC :: Met
NC(=O)N/N=C/c1ccc(Br)o1 :: Not met
CCOC(=O)c1c2c(c(C)n1Cc1ccccc1)-c1nc(N)ncc1CC2 :: Not met
O=c1[nH]c(=O)n(C2CC(O)C(CO)O2)cc1C(F)(F)F (stereo unspecified) :: Met

Turning now to a further record.
hey, is growth for CCS(=O)(=O)OCCCl lower than 60% or not? Met

---

System: SK-MEL-28 melanoma
Assay: NCI-60 one-dose screen, 48 h
Details: 10 µM unless noted
Compounds without any hit were thinned out: in the full panel of roughly 83,000, 20% have a hit. The source made the active and inactive calls. Rule for the calls: active = growth percent below 10; inactive = the rest.
Parameter call: string, one of active, inactive

Check out these entries, answers already filled in.
CNc1ccc(CSc2ccc(Cl)cc2)cc1 :: inactive
C=CCOc1ccc2c(c1)CC[C@@H]1[C@@H]2CC[C@@]2(C)[C@H]1CC[C@]2(C)O :: inactive
COc1ccc(C2CC(c3ccc(OC)c(OC)c3)=NN2C(=O)c2cc(OC)c(OC)c(OC)c2)c(OC)c1 (stereo unspecified) :: inactive
CN(C)c1ccc2[nH]c3c(C(N)=O)cc(=O)c(=O)c=3oc2c1 :: inactive
O=C1C(=O)c2ccc(Br)cc2-c2cc(Br)ccc21 :: inactive

Called result for O=[N+]([O-])c1ccc2c(c1)S(=O)c1cc([N+](=O)[O-])ccc1N2 inactive

// query: NC(=O)SCC(=O)Nc1ccccc1-c1ccccc1 inactive

// query: COc1ccc2nccc(/C=C/c3ccnc4ccc(OC)cc34)c2c1 inactive

// query: COc1cc(/C=C/C(=O)Nc2cccnc2Nc2cc(OC)c(OC)c(OC)c2)cc(OC)c1OC inactive

// query: O=Nc1ccc(O)c(=O)cc1 inactive

// query: CN(CC(=O)N(Cc1ccc(C2CCCCC2)cc1)c1ccc(C(=O)O)cc1)S(=O)(=O)c1c(F)c(F)c(F)c(F)c1F active

Each recorded value in this set is attributed to PubChem BioAssay (NCI).
